Read-out: Interleukin-1 alpha (IL1a), IL1A (gene 3552)
Assay: BSK_LPS_IL1a: BioMAP Diversity Plus: LPS Assay for Interleukin-1 alpha (IL1a) Biomarker Activity (AID 2283080)
Details: primary human HUVEC with PBMC; actives raise or lower the signal
The source made the active and inactive calls. The calls were made as follows: active = hit-call score of the fitted dose curve at least 0.9, where 1 is the maximum; inactive = score below 0.9.

{"Molecule": "CC[N+](CC)(CC)Cc1ccccc1", "AC50": "inactive"}
{"Molecule": "CCCCCCCCCCCCOS(=O)(=O)O", "AC50": "inactive"}
{"Molecule": "CCCCCCCCCCCCCCC", "AC50": "inactive"}
{"Molecule": "C=CC(C)(CCC=C(C)C)OC(C)=O (configuration not stated)", "AC50": "inactive"}
{"Molecule": "COCN(COC)c1nc(N(COC)COC)nc(N(COC)COC)n1", "AC50": "inactive"}
{"Molecule": "CCCCc1oc2ccccc2c1C(=O)c1cc(I)c(OCCN(CC)CC)c(I)c1", "AC50": "19.1 µM (active)"}
{"Molecule": "O=C(CCCN1CCC(O)(c2ccc(Cl)cc2)CC1)c1ccc(F)cc1", "AC50": "inactive"}
{"Molecule": "O=C(O)CCC(F)(F)C(F)(F)C(F)(F)C(F)(F)C(F)(F)F", "AC50": "inactive"}
{"Molecule": "O=C1OC2(c3ccccc31)c1cc(I)c(O)c(I)c1Oc1c2cc(I)c(O)c1I", "AC50": "9.13 µM (active)"}
{"Molecule": "N=C(N)c1ccc(OCCCCCOc2ccc(C(=N)N)cc2)cc1", "AC50": "17.5 µM (active)"}
{"Molecule": "COc1cc(OC)nc(NC(=O)NS(=O)(=O)Nc2ccccc2C(=O)N(C)C)n1", "AC50": "0.0637 µM (active)"}
{"Molecule": "CCCCCCCCCCCCCCCCCC[N+](C)(C)Cc1ccccc1", "AC50": "2.71 µM (active)"}
{"Molecule": "C=COC(=O)C(C)(C)CCCCCC", "AC50": "33.6 µM (active)"}
{"Molecule": "Oc1cc2ccccc2cc1O", "AC50": "inactive"}
{"Molecule": "O=C(CC(=O)C(F)(F)C(F)(F)C(F)(F)F)c1cccs1", "AC50": "inactive"}
{"Molecule": "Cc1cccc2c1ccc1ccccc12", "AC50": "inactive"}
{"Molecule": "O=C1NS(=O)(=O)c2ccccc21", "AC50": "inactive"}
{"Molecule": "CCOC(=O)CN[C@@H](C(=O)N1CC[C@H]1C(=O)NCc1ccc(/C(N)=N/O)cc1)C1CCCCC1", "AC50": "inactive"}
{"Molecule": "O=C(NO)c1ccccc1", "AC50": "inactive"}
{"Molecule": "COc1cccc(O)c1", "AC50": "inactive"}
{"Molecule": "CCCCC(CC)C(=O)O (configuration not stated)", "AC50": "inactive"}
{"Molecule": "Cc1[nH]nc2c1N=C(c1ccccc1Cl)c1cc([N+](=O)[O-])ccc1N2", "AC50": "4.2 µM (active)"}
{"Molecule": "O=C1c2ccc(O)c(O)c2C(=O)c2c(O)ccc(O)c21", "AC50": "inactive"}
{"Molecule": "CN(Cc1cnc2nc(N)nc(N)c2n1)c1ccc(C(=O)N[C@@H](CCC(=O)O)C(=O)O)cc1", "AC50": "inactive"}
{"Molecule": "CCC(C)c1ccccc1O (configuration not stated)", "AC50": "inactive"}
{"Molecule": "CC(=O)Nc1ccc(O)cc1", "AC50": "inactive"}
{"Molecule": "OCC(CO)(CBr)CBr", "AC50": "inactive"}

----------
Test system: SRD5A2 (gene 6716)
Test: CCTE_Deisenroth_5AR_NBTE_ratio: CCTE's 5alpha-reductase NanoBRET Target Engagement Assay - Ratio, Deisenroth Lab (AID 2284322)
Conditions: actives raise or lower the signal
Calls of active or inactive are those of the source. The calls were made as follows: active = hit-call score of the fitted dose curve at least 0.9, where 1 is the maximum; inactive = score below 0.9.
Labels: t (active), f (inactive)

{"Compound Structure": "CCc1ccccc1O", "Label": "f"}
{"Compound Structure": "COc1cc([N+](=O)[O-])ccc1N", "Label": "t"}
{"Compound Structure": "CCCCCCc1ccc(N)cc1", "Label": "t"}
{"Compound Structure": "CCCCc1oc2ccccc2c1C(=O)c1cc(I)c(OCCN(CC)CC)c(I)c1", "Label": "f"}
{"Compound Structure": "NC(=NCCCCCCN=C(N)/N=C(\\N)Nc1ccc(Cl)cc1)/N=C(\\N)Nc1ccc(Cl)cc1", "Label": "t"}

----------
Assay: CCTE_Shafer_MEA_dev_per_network_spike_spike_number_mean: CCTE's Neural Network Formation Assay for Mean Number of Spikes in a Network Spike, Shafer Lab (AID 2284053)
The source made the active and inactive calls. How the source made its calls: active means hit-call score of the fitted dose curve at least 0.9, where 1 is the maximum; inactive means score below 0.9.
Labels: active, inactive

{"Compound": "O=C(CC(=O)C(F)(F)C(F)(F)C(F)(F)F)c1cccs1", "Label": "active"}
{"Compound": "O=C(C=C(O)C(F)(F)F)C(F)(F)F", "Label": "inactive"}
{"Compound": "O=C(CCCN1CCC(O)(c2ccc(Cl)cc2)CC1)c1ccc(F)cc1", "Label": "active"}
{"Compound": "O=C(O)CCC(F)(F)C(F)(F)C(F)(F)C(F)(F)C(F)(F)F", "Label": "inactive"}
{"Compound": "O=C(O)C(F)(F)OC(F)(F)C(F)(F)OC(F)(F)C(F)(F)OC(F)(F)C(F)(F)C(F)(F)C(F)(F)F", "Label": "inactive"}
{"Compound": "FC(F)=C(F)C(F)(F)C(F)(F)C(F)(F)C(F)F", "Label": "inactive"}
{"Compound": "O=C(F)C(F)(F)C(F)(F)C(F)(F)C(F)F", "Label": "inactive"}
{"Compound": "COC(=O)C(F)(F)C(F)(F)C(F)(F)C(F)(F)C(F)(F)F", "Label": "inactive"}
{"Compound": "O=C(OC(=O)C(F)(F)C(F)(F)F)C(F)(F)C(F)(F)F", "Label": "inactive"}
{"Compound": "O=P(O)(O)CCC(F)(F)C(F)(F)C(F)(F)C(F)(F)C(F)(F)C(F)(F)F", "Label": "inactive"}
{"Compound": "CC(C)c1c(C(=O)Nc2ccccc2)c(-c2ccccc2)c(-c2ccc(F)cc2)n1CC[C@@H](O)C[C@@H](O)CC(=O)O", "Label": "active"}
{"Compound": "O=CC(F)(F)C(F)(F)C(F)(F)F", "Label": "inactive"}
{"Compound": "Nc1ccn([C@@H]2O[C@H](CO)[C@@H](O)C2O)c(=O)n1 (stereo not given in full)", "Label": "active"}
{"Compound": "FCOC(C(F)(F)F)C(F)(F)F", "Label": "inactive"}
{"Compound": "CN(CCO)S(=O)(=O)C(F)(F)C(F)(F)C(F)(F)C(F)(F)C(F)(F)C(F)(F)C(F)(F)C(F)(F)F", "Label": "inactive"}
{"Compound": "O=C(F)C(F)(F)C(F)(F)C(F)(F)C(=O)F", "Label": "inactive"}
{"Compound": "NC(C(F)(F)F)C(F)(F)F", "Label": "inactive"}
{"Compound": "CN(C)CCOC(c1ccccc1)c1ccccc1", "Label": "inactive"}
{"Compound": "O=C1NS(=O)(=O)c2ccccc21", "Label": "inactive"}
{"Compound": "O=P(O)(O)CCC(F)(F)C(F)(F)C(F)(F)C(F)(F)C(F)(F)C(F)(F)C(F)(F)C(F)(F)F", "Label": "active"}

----------
Test: ATG_M_06_TRANS: Attagene TRANS-FACTORIAL HepG2 Assay for M06 Transcription Factor (Internal Marker) (AID 2282983);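 also: reporter transcript level by RT-PCR then capillary electrophoresis fluorescence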
Conditions: HepG2 Attagene TRANS M06 internal marker reporter
Records with an inconclusive call do not appear. The source made the active and inactive calls. Rule for the calls: active = hit-call score of the fitted dose curve at least 0.9, where 1 is the maximum; inconclusive = response in the unintended direction; inactive = score below 0.9.

{"Molecule": "COc1ccccc1NC(=O)c1cc2ccccc2cc1O", "outcome": "inactive"}
{"Molecule": "COC(=O)C(F)(F)C(F)(F)C(F)(F)C(F)(F)C(F)(F)F", "outcome": "inactive"}
{"Molecule": "CS(=O)(=O)c1ccc([C@@H](CC2CCCC2)C(=O)Nc2cnccn2)cc1Cl", "outcome": "inactive"}
{"Molecule": "CCCCC=O", "outcome": "inactive"}
{"Molecule": "CCOC(C)=O", "outcome": "inactive"}
{"Molecule": "Cc1ccc(N=Nc2c(O)ccc3ccccc23)c(C)c1", "outcome": "inactive"}
{"Molecule": "CCC(C)c1nccnc1OC (configuration not stated)", "outcome": "inactive"}
{"Molecule": "CNNCc1ccc(C(=O)NC(C)C)cc1", "outcome": "inactive"}
{"Molecule": "CCCCC(CC)C(=O)O (configuration not stated)", "outcome": "inactive"}
{"Molecule": "O=C(F)C(F)(F)C(F)(F)C(F)(F)C(=O)F", "outcome": "inactive"}
{"Molecule": "CC(C)CCOCCC(C)C", "outcome": "inactive"}
{"Molecule": "O=S(=O)(O)C(F)(F)C(F)(F)C(F)(F)C(F)(F)C(F)(F)C(F)(F)C(F)(F)C(F)(F)C(F)(F)C(F)(F)F", "outcome": "inactive"}
{"Molecule": "CCCCCCCCCCCCCCCCCC[N+](C)(C)Cc1ccccc1", "outcome": "inactive"}
{"Molecule": "CCCCC(CC)C(=O)OCCOCCOCCOCCOC(=O)C(CC)CCCC (configuration not stated)", "outcome": "inactive"}
{"Molecule": "CCC1CO1 (configuration not stated)", "outcome": "inactive"}
{"Molecule": "Brc1ccc(Oc2ccc(Br)cc2Br)cc1", "outcome": "inactive"}
{"Molecule": "c1cnc2c(c1)ccc1cccnc12", "outcome": "inactive"}
{"Molecule": "CC[N+](CC)(CC)Cc1ccccc1", "outcome": "inactive"}
{"Molecule": "CCCCc1ccc2ccccc2c1S(=O)(=O)O", "outcome": "inactive"}
{"Molecule": "C=CC(=O)OCCC(F)(F)C(F)(F)C(F)(F)C(F)(F)C(F)(F)C(F)(F)F", "outcome": "inactive"}
{"Molecule": "O=P(O)(O)CCC(F)(F)C(F)(F)C(F)(F)C(F)(F)C(F)(F)C(F)(F)F", "outcome": "inactive"}
{"Molecule": "CCCCCCCCCCCC", "outcome": "inactive"}
{"Molecule": "Cc1[nH]nc2c1N=C(c1ccccc1Cl)c1cc([N+](=O)[O-])ccc1N2", "outcome": "inactive"}
{"Molecule": "c1cc[nH]c1", "outcome": "inactive"}
{"Molecule": "COCC1CCC(CO)CC1 (configuration not stated)", "outcome": "inactive"}
{"Molecule": "CC1=NN(c2ccccc2)C(=O)C1", "outcome": "inactive"}
{"Molecule": "CCOC(=O)CN[C@@H](C(=O)N1CC[C@H]1C(=O)NCc1ccc(/C(N)=N/O)cc1)C1CCCCC1", "outcome": "inactive"}
